Target: hPAD4 (Homo sapiens, UniProt Q9UM07)
Sequence (Q9UM07 whole entry): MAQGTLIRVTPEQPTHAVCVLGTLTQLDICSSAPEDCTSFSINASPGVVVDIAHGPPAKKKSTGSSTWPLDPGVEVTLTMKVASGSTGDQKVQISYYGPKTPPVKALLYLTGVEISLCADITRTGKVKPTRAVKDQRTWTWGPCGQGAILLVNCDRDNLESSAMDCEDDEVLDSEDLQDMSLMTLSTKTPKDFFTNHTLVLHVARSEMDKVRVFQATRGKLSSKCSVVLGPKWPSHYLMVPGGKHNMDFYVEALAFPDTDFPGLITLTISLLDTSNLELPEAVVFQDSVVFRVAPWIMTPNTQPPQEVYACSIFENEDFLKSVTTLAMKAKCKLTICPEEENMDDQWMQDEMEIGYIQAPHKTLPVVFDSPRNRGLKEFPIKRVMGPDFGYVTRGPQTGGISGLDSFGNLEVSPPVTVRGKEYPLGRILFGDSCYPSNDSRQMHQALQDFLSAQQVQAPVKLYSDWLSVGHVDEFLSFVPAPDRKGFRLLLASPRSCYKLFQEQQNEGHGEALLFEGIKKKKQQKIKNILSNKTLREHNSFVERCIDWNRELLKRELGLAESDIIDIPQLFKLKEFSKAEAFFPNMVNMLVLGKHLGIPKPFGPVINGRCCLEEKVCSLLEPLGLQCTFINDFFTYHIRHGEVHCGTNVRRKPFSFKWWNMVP
Assay: hPAD4 RFMS (RapidFire mass spectrometry) PAD4 inhibition assay;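 note: grade E means pIC50 at most 4 and F means pIC50 4.0 to 5.0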
Type: biochemical
Details: hPAD4 enzyme, RFMS readout; pIC50=−log(IC50); read-out: hPAD4 RFMS pIC50 (converted)

>  <Compound>
COCCn1c(-c2nc3cc(C(=O)N4C[C@H](N)CC[C@@H]4C)cc(OC)c3n2C)cc2cccnc21 (racemic) [Compound I-170]

>  <IC50>
1 to 10 µM

$$$$
>  <Compound>
CCn1c(-c2nc3cc(C(=O)N4CC[C@@H]5CCN[C@@H]5C4)ccc3n2C)cc2cccnc21

>  <IC50>
10 to 100 µM

$$$$
>  <Compound>
COc1cc(C(=O)N2CC[C@H]3CCN[C@H]3C2)cc2nc(-c3cc4cncnc4n3CC3CC3)n(C)c12

>  <IC50>
1 to 10 µM

$$$$
>  <Compound>
COc1ccc2cc(-c3nc4cc(C(=O)N5CCC[C@@H](N)C5)cc(OC(F)F)c4n3C)n(CC3CC3)c2n1

>  <IC50>
< 1 µM

$$$$
>  <Compound>
CO[C@H]1CCN(C(=O)c2cc(OC(F)F)c3c(c2)nc(-c2cc4cccnc4n2CC2CC2)n3C)C[C@H]1N

>  <IC50>
1 to 10 µM

$$$$
>  <Compound>
Cn1c(-c2cc3cccnc3n2CC2CC2)nc2cc(C(=O)N3CCC[C@H]4NCC[C@H]43)ccc21

>  <IC50>
10 to 100 µM

$$$$
